test system: KU-812; settings: 72 h
measure name: IC50 (cell viability)

Problem: Name the recorded IC50 (cell viability) of O=C(O)C1=CC(=C(c2ccc(O)c(C(=O)O)c2)c2ccc(O)c(C(=O)O)c2)C=CC1=O [Aurintricarboxylic acid] , assay system KU-812.
Result: > 10 µM

Problem: Identify measured IC50 (cell viability) obtained with KU-812 for Oc1ccc(Nc2nc(-c3ccc(Cl)cc3)cs2)cc1 [SKI II] .
Result: 2.9 µM

Problem: # return IC50 (cell viability) for COc1ccc(CNC(=O)Nc2ncc([N+](=O)[O-])s2)cc1 , test system: KU-812
Result: > 10 µM

Problem: Write down the reported IC50 (cell viability) (system: KU-812) of CN(C)c1cc(NC(=O)CNC(C)(C)C)c(O)c2c1C[C@H]1C[C@H]3[C@H](N(C)C)C(=O)C(C(N)=O)C(=O)[C@@]3(O)C(=O)C1C2=O (some centres undefined) [Tigecycline]
Result: > 10 µM

Problem: // fetch IC50 (cell viability); item: CCCc1cc(-c2nc(-c3ccc(C)cc3)cs2)ccn1 [Fatostatin] ; system: KU-812
Result: > 10 µM

Problem: Report IC50 (cell viability) on KU-812 for this entry: CCC(=O)N1CCN(c2ccc(-n3c(=O)ccc4cnc5ccc(-c6cnc7ccccc7c6)cc5c43)cc2C(F)(F)F)CC1 [Torin1]
Result: 0.191 µM

Problem: # return IC50 (cell viability) of CC[C@H](C)C(=O)O[C@H]1C[C@@H](C)C=C2C=C[C@H](C)[C@H](CC[C@@H]3C[C@@H](O)CC(=O)O3)[C@H]21 [Lovastatin] (system: KU-812)
Result: > 10 µM

Problem: Please report IC50 (cell viability) with KU-812 for item O=C(O)Cn1nnc(-c2cc(N3CCC(Oc4cc(F)ccc4Br)CC3)no2)n1 [MK-8245] .
Result: > 10 µM

Problem: Enter IC50 (cell viability) (test system KU-812) for O=C1O/C(=C/Br)CCC1c1cccc2ccccc12 (centres undefined) [Bromoenol Lactone]
Result: 5.18 µM

Problem: Give IC50 (cell viability); test system KU-812; molecule CCCCCCCCCCCC(=O)c1c(O)c(C(=O)CCCCCCCCCCC)c(O)c(C2CC(c3ccc(O)cc3)Oc3cc(O)ccc32)c1O (centres undefined)
Result: > 10 µM

Problem: Give IC50 (cell viability) for CCN(CC)CCCC(C)Nc1ccnc2cc(Cl)ccc12 (centres undefined) [Chloroquine] tested on KU-812.
Result: > 10 µM

Problem: Write down the reported IC50 (cell viability) (system: KU-812) of COc1cc(/C=C/C(=O)N2CCC=CC2=O)cc(OC)c1OC [Piperlongumine]
Result: 2.87 µM

Problem: Fill in IC50 (cell viability) for Nc1ccccc1C(=O)C[C@H](N)C(=O)O [L-Kynurenine] tested with KU-812.
Result: > 10 µM

Problem: Give IC50 (cell viability) only, for NS(=O)(=O)c1ccc([N+](=O)[O-])cc1 [4-Nitrobenzenesulfonamide] , using KU-812 data.
Result: > 10 µM

Problem: System KU-812. Read-out IC50 (cell viability). Item O=C(O)c1cc(N=Nc2ccc(S(=O)(=O)Nc3ccccn3)cc2)ccc1O [Sulfasalazine] . Report value.
Result: > 10 µM

Problem: Give reported IC50 (cell viability) for Cl.NC(CCC(=O)Nc1ccc([N+](=O)[O-])cc1)C(=O)O (centres undefined) [GPNA] (KU-812)
Result: > 10 µM

Problem: Answer briefly: IC50 (cell viability) recorded on KU-812 for C=C(C)[C@H]1Cc2c(ccc3c2O[C@@H]2COc4cc(OC)c(OC)cc4[C@@H]2C3=O)O1 [Rotenone]
Result: 0.0232 µM

Problem: Supply IC50 (cell viability) measured with KU-812 for O=C(NNc1ccccc1)c1ccncc1 [PluriSln 1] .
Result: > 10 µM

Problem: Enter IC50 (cell viability) (test system KU-812) for Nc1nc(Cl)nc2c1ncn2[C@H]1C[C@H](O)[C@@H](CO)O1 [Cladribine]
Result: 0.0989 µM
